The measured values listed here are drawn from PubChem BioAssay (NCI).

# Assay details: NCI Yeast Anticancer Drug Screen. Data for the mlh1 rad18 strain (AID 175)
# Test settings: S. cerevisiae mlh1 rad18 strain growth inhibition; at 50.0 µM; hits give high values
This is part of a sample that, as a whole, favours compounds with a hit. Of some 79,000 tested, about 15% had one in any assay.
Listing: growth inhibition of selected compounds
Give the value, in units of %, as a plain number.

compound="COC1(CCO)CC=CCC1(CCO)OC (stereo not given)" measurement_type="growth inhibition" units_label=% observed=-7.9

Prompt line: Find the recorded growth inhibition belonging to CCCCCCCCCCC1OCC(CC)([N+](=O)[O-])CO1 (stereo not given) and report it.
Response line: -10.6

Prompt line: Find the recorded growth inhibition belonging to Cc1noc(/N=C/c2ccccc2)c1C and report it.
Response line: -2.5

Prompt line: Find the recorded growth inhibition belonging to Nc1cc(Cl)nc(Cl)n1 and report it.
Response line: 3.8

Prompt line: Find the recorded growth inhibition belonging to CC1=NC2(CCCCC2)N(Cl)C(=O)C1SC#N (stereo not given) and report it.
Response line: -27.4

Prompt line: Find the recorded growth inhibition belonging to CCOC(=O)N1C=Cc2ccccc2C1C(=N)N (stereo not given) and report it.
Response line: -13.6

Prompt line: Find the recorded growth inhibition belonging to CC(CO)NCc1ccccc1 (stereo not given) and report it.
Response line: 3.95

Prompt line: Find the recorded growth inhibition belonging to N#C/C(=C\c1ccco1)C(=O)Nc1ccc(Br)cc1 and report it.
Response line: 23.8

Prompt line: Find the recorded growth inhibition belonging to CC/C(C)=N/C(=O)NN and report it.
Response line: 20.3

Prompt line: Find the recorded growth inhibition belonging to O=C1COC(=O)N1 and report it.
Response line: 8.25

Prompt line: Find the recorded growth inhibition belonging to CC1COC(c2ccc(C(C)C)cc2)O1 (stereo not given) and report it.
Response line: -4.4

Prompt line: Find the recorded growth inhibition belonging to OCC1OC(n2c(=S)[nH]c3ccccc32)C(O)C1O (stereo not given) and report it.
Response line: 7.4

Prompt line: Find the recorded growth inhibition belonging to N#Cc1cc(C#N)c(N)nc1N and report it.
Response line: -5.7

Prompt line: Find the recorded growth inhibition belonging to N#C/C(=C/c1cccs1)c1ccc(Cl)cc1 and report it.
Response line: 1.85

Prompt line: Find the recorded growth inhibition belonging to O=C(SCc1ccccc1)N(c1ccccc1)c1ccccc1 and report it.
Response line: 5.3

Prompt line: Find the recorded growth inhibition belonging to C1=Cc2ccccc2/C1=C\C=C\c1ccccc1 and report it.
Response line: 18.1

Prompt line: Find the recorded growth inhibition belonging to CCC1CCCCCC1=O (stereo not given) and report it.
Response line: -21.3
